Below are pIC50 values recorded for UniProtKB P0DTD1.
Answers are plain numbers, as −log10 of the molar value.

INSERT INTO results (line_notation, observed_value) VALUES
  ('CN1C(=O)SC(=CC=Cc2c3ccccc3cc3ccccc23)C1=O', 3.97),
  ('O=C1NC(=S)SC1=CC=Cc1cncc2ccccc12', 6.03),
  ('O=C1NC(=O)C(=CC=Cc2cncc3ccccc23)S1', 5.13),
  ('O=C1NC(=O)C(=CC=Cc2ccccc2)S1', 5.03),
  ('O=C1NC(=S)SC1=CC=Cc1ccnc2ccccc12', 6.52),
  ('O=C1NC(=O)C(=CC=Cc2ccnc3ccccc23)S1', 5.87);

In the following, a different compound is considered.
Quick note, pIC50 for O=C1NC(=O)C(=CC=Cc2c3ccccc3cc3ccccc23)S1 landed at 5.14

----------
# Test system: VeroE6/TMPRSS2 cells
# Assay remarks: in vitro
# Assay type: cell-based
# Condition info: uninfected cells, 24 h, intracellular ATP
Assay readout: CC50 (µM)
One number for each entry, in µM.

What the record says about O=C1NC(=S)SC1=CC=Cc1cncc2ccccc12 [KCO251] : CC50 is 311

----------
# Assay remarks: in vitro
# Format: cell-based
# Condition info: African green monkey, uninfected cells, intracellular ATP
Assay readout: CC50 at 24 h

INSERT INTO measurements (line_notation, observed_value) VALUES
  ('O=C1NC(=S)SC1=CC=Cc1ccnc2ccccc12', '> 500 µM');

--- query ---
The value of CC50 at 24 h measured for the compound O=C1NC(=S)SC1=CC=Cc1cncc2ccccc12 turned out to be > 300 µM

----------
# Tgt: wildtype SARS-CoV-2 Nsp15 (Severe acute respiratory syndrome coronavirus 2, UniProt P0DTD1)
# Assay remarks: biochemical
Assay readout: inhibitory effect on Nsp15 activity

INSERT INTO assay_data (compound, observed_value) VALUES
  ('O=C1NC(=O)C(=CC=Cc2ccc3cnccc3c2)S1 [KCO236]', 'submicromolar levels'),
  ('O=C1NC(=S)SC1=CC=Cc1cncc2ccccc12 [KCO251]', 'submicromolar levels'),
  ('O=C1NC(=S)SC1=CC=Cc1ccnc2ccccc12 [KCO237]', 'submicromolar levels');

----------
# Tgt: wildtype SARS-CoV-2 Nsp15 (Severe acute respiratory syndrome coronavirus 2)
# Assay remarks: biochemical
# Condition info: noncompetitive inhibition model, IC50-to-Ki converter; read-out: Predicted Ki
Please respond with reported pKi for every item in the list.
Numbers only, as −log10 of the molar value.

# count of solved cases: 5
INSERT INTO assay_data (molecule, tgt, observed_value) VALUES
  ('O=C1NC(=S)SC1=CC=Cc1cncc2ccccc12 [KCO251]', 'wildtype SARS-CoV-2 Nsp15 (Severe acute respiratory syndrome coronavirus 2)', 6.07),
  ('O=C1NC(=S)SC1=CC=Cc1c2ccccc2cc2ccccc12 [KCO230]', 'wildtype SARS-CoV-2 Nsp15 (Severe acute respiratory syndrome coronavirus 2)', 5.35),
  ('O=C1NC(=O)C(=CC=Cc2ccc3cnccc3c2)S1 [KCO236]', 'wildtype SARS-CoV-2 Nsp15 (Severe acute respiratory syndrome coronavirus 2)', 6.07),
  ('O=C1NC(=O)C(=CC=Cc2ccccc2)S1 [KCO036]', 'wildtype SARS-CoV-2 Nsp15 (Severe acute respiratory syndrome coronavirus 2)', 5.03),
  ('O=C1NC(=O)C(=CC=Cc2ccnc3ccccc23)S1 [KCO048]', 'wildtype SARS-CoV-2 Nsp15 (Severe acute respiratory syndrome coronavirus 2)', 5.90);

Consider the following items and state reported pKi for each.
1. O=C1NC(=O)C(=CC=Cc2cncc3ccccc23)S1 [KCO234]
2. O=C1NC(=O)C(=CC=Cc2cccc3ccncc23)S1 [KCO235]

**A:**
1. 5.14
2. 5.39
